Assay: protein stability index of a GFP-peptide fusion (yeast GPS) (PSI 1-4); higher = more stable; sorted into four equal gates, so the index is relative within each strain
Details: doa10∆
MEASURE NAME: protein stability index
API note: the answer field is a bare number with no unit suffix.

{"SEQUENCE TEXT": "VTADTVILFDSDWNPQA [ISW2]", "protein stability index": 3.08}
{"SEQUENCE TEXT": "YIKSMDLISKKTKTSLL [RPR2]", "protein stability index": 2.96}
{"SEQUENCE TEXT": "YLNGTLIGSIRFPTKFV [RET1]", "protein stability index": 2.04}
{"SEQUENCE TEXT": "NRLSNPQKNLLLKGPAS [YOR098C/NUP1]", "protein stability index": 2.96}

Could you now consider this next sequence?
The sequence listed as VYANNPEVSDDGGLEEE [SIR3] has a reported protein stability index of 2.97
